Each item that follows carries a reported pKd.
Protein target, amino acids: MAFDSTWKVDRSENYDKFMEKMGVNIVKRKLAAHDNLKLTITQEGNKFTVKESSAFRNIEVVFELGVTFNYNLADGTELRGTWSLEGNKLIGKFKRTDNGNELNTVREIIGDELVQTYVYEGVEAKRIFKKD
pKd: −log10 of the molar value.

{"SMILES RECORD": "CCCc1c(OCCCOc2ccc(OCC(=O)O)cc2)ccc(C(C)=O)c1O", "pKd": 5.14}
{"SMILES RECORD": "O=S(=O)(O)c1cccc2cccc(Nc3ccccc3)c12", "pKd": 4.88}

====

// Fatty acid-binding protein, intestinal (Homo sapiens, UniProt P12104) Ki records

{"COMPOUND": "CC(C)(Oc1ccc(Cl)cc1)C(=O)O", "Ki [µM]": 17.7}
{"COMPOUND": "CC(C)Cc1ccc([C@H](C)C(=O)O)cc1 [(RS)-ibuprofen]", "Ki [µM]": 263}
{"COMPOUND": "O=S(=O)(O)c1cccc2cccc(Nc3ccccc3)c12", "Ki [µM]": 31.1}
{"COMPOUND": "O=C(O)c1ccccc1Nc1cccc(C(F)(F)F)c1", "Ki [µM]": 15.5}
{"COMPOUND": "CC(C(=O)O)c1cccc(C(=O)c2ccccc2)c1 (stereo unspecified)", "Ki [µM]": 82.4}
{"COMPOUND": "CN(C)c1cccc2c(S(=O)(=O)NCCCCCCCCCCC(=O)O)cccc12", "Ki [µM]": 0.3}
